Assignment: determine reported pKi for the given molecules.
Target: Thymidylate kinase (Mycobacterium tuberculosis)
Sequence (P9WKE1 whole entry): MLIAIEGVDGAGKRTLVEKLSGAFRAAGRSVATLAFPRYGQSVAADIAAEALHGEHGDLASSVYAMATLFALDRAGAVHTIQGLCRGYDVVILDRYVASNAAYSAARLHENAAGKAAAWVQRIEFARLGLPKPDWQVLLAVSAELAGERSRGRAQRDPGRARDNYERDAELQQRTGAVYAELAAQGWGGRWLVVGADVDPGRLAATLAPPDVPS
Numbers only, as −log10 of the molar value.

Solved entries:
CNS(=O)(=O)CC[C@H]1O[C@@H](n2cc(C)c(=O)[nH]c2=O)C[C@@H]1O 3.62
Cc1cn([C@H]2C[C@H](O)[C@@H](CCS(C)(=O)=O)O2)c(=O)[nH]c1=O 3.47
Cc1cn([C@H]2C[C@H](O)[C@@H](CCC#N)O2)c(=O)[nH]c1=O 4.32

I'm curious: which pKi was measured for Cc1cn([C@H]2C[C@H](O)[C@@H](CCc3nnn[nH]3)O2)c(=O)[nH]c1=O tested on Thymidylate kinase (Mycobacterium tuberculosis)?
4.15
